Where these numbers come from: ChEMBL document CHEMBL1153396

target_of_assay: Carbonic anhydrase (Candida albicans (strain SC5314 / ATCC MYA-2876) (Yeast))
Sequence (Q5AJ71 whole entry): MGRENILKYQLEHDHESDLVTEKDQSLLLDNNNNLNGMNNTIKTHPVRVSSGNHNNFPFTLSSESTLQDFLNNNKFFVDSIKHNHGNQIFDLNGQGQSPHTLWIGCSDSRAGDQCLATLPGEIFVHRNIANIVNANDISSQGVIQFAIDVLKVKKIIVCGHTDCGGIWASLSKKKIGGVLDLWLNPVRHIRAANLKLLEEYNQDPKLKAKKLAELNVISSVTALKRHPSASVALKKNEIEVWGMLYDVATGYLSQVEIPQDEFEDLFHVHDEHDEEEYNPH
protocol_details: Inhibition of Candida albicans Nce103
measured_metric: pKi
Value format note: pKi is -log10 of concentration (mol/L); just state the number.

molecule	experimental_result
CCCCC(=O)[O-].[Na+] [SODIUM VALERATE]	4.03
O=C([O-])CC(O)(CC(=O)[O-])C(=O)[O-].[Na+].[Na+].[Na+] [SODIUM CITRATE]	4.41
O=C[O-].[Na+] [SODIUM FORMATE]	4.45
CCC(=O)[O-].[Na+] [SODIUM PROPIONATE]	4.29
O=C([O-])CC(=O)[O-].[Na+].[Na+] [DISODIUM MALONATE]	4.58

// query Suppose we examine the molecule O=C(O)c1c(F)c(F)cc(F)c1F ; what pKi value has been reported?
// result 4.21

// query Try the molecule O=C([O-])C(=O)[O-].[Na+].[Na+] [SODIUM OXALATE]
// result 4.42

// query What about this molecule? CC(=O)[O-].[Na+] [SODIUM ACETATE]
// result 4.44

// query Item: C[C@H](O)C(=O)[O-].[Na+]
// result 4.33

// query Now give it for CC(=O)C(=O)O [PYRUVATE SODIUM] too.
// result 3.98

// query Item: O=C([O-])c1ccccc1.[Na+] [SODIUM BENZOATE]
// result 4.61

// query Next entry: O=C([O-])/C=C\C(=O)[O-].[Na+].[Na+] [SODIUM MALEATE]
// result 5.07

// query Also, CCCC(=O)[O-].[Na+] [SODIUM BUTYRATE] please.
// result 4.57

// query Subsequent entry: O=C([O-])C[C@H](O)C(=O)[O-].[Na+].[Na+]
// result 4.06
